System: UACC-257 melanoma
Test details: NCI tumour cell line growth inhibition, 48 h
Readout name: TGI (µM)
Write the number in µM without appending the unit.

Problem: Request the reported TGI associated with CC(=O)NNc1nc(C)c(C(=O)NNC(=O)C(=O)Nc2ccc(Cl)cc2Cl)s1
Result: 83.4

Problem: Request the reported TGI associated with COc1cc2nc3cc([N+](=O)[O-])ccc3c(NCCNCC(C)(C)O)c2cc1OC
Result: 4.19

* * *

What TGI was measured for each of the following?
Test system: MDA-MB-231 breast
Test details: NCI tumour cell line growth inhibition, 48 h
Write the number in µM without appending the unit.

Problem: Request the reported TGI associated with C=CC(=O)N1CC2(CC(n3nc(-c4ccc5c(cnn5C)c4)c(-c4c(Cl)c(C)cc5[nH]ncc45)c3C)C2)C1
Result: 6.62

Problem: Request the reported TGI associated with C[C@H](C/C=C/C(C)(C)O)[C@H]1CC[C@@]2(C)[C@@H]3CC[C@H]4C(C)(C)[C@@H](O)CC[C@@]45C[C@@]35CC[C@]12C
Result: 33.2

Problem: Request the reported TGI associated with COc1cc(C2c3cc4c(cc3OC(N3CCNCC3)C2C)OCO4)cc(OC)c1OC (centres undefined)
Result: 2.46

Problem: Request the reported TGI associated with C[Si](C)(C)C1=C([Si](C)(C)C)C(Cl)(Cl)C1=O
Result: 7.85
